Ref: ChEMBL document CHEMBL3639003

molecular target: cAMP and cAMP-inhibited cGMP 3',5'-cyclic phosphodiesterase 10A (Homo sapiens)
Sequence (Q9Y233 whole entry): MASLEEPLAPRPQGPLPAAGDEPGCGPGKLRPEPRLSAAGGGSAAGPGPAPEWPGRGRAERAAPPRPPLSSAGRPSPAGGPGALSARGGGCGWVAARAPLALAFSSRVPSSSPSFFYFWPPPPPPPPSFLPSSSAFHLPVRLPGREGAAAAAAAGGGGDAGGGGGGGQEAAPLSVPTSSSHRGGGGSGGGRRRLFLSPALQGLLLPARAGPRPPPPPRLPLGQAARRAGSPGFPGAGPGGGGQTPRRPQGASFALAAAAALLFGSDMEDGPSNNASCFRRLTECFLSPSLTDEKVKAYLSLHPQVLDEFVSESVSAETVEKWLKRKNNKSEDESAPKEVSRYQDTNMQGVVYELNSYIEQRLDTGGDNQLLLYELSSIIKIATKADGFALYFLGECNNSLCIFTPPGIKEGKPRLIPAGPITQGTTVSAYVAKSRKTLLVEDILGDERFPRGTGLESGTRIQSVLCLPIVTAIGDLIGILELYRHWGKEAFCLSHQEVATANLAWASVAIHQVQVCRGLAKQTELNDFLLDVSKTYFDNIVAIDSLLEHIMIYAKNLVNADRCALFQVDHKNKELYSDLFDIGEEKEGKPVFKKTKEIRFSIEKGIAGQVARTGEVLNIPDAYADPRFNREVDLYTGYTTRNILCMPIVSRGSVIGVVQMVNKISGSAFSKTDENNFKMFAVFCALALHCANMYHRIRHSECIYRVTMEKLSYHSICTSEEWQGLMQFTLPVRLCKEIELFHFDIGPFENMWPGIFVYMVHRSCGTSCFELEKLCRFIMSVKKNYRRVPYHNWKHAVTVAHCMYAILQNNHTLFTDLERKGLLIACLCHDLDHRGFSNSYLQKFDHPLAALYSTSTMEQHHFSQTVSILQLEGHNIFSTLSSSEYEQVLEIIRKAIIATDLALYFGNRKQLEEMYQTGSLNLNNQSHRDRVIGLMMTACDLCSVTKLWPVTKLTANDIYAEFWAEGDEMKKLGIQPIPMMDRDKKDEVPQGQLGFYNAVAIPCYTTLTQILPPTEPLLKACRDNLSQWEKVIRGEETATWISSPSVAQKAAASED
pIC50: −log10 of the molar value.
Label 1 when pIC50 >= 8; otherwise 0.

Completed entries (count: 7):
Input line: Evaluate COC(=O)N1CC(c2nccnc2O[C@H]2C[C@@H](Nc3nc4ccccc4s3)C2)C1 : pIC50 at minimum 8?
Output line: 0

Input line: hey, is pIC50 for this one >= 8? Cc1ccc(N[C@H]2C[C@H](Oc3ncccc3C3CCOCC3)C2)nc1
Output line: 0

Input line: Record Cc1cc(-c2cccnc2O[C@H]2CC[C@H](Nc3nc4ccccc4s3)CC2)ccn1 ; criterion: pIC50 no lower than 8. Met?
Output line: 0

Input line: Reported pIC50 at or above 8? O=S1(=O)CCN(c2nccnc2O[C@H]2C[C@@H](Nc3nc4ccccc4s3)C2)CC1
Output line: 0

Input line: I'd appreciate it if you could say whether N#CC1CCN(c2nccnc2O[C@H]2C[C@@H](Nc3nc4ccccc4s3)C2)C1 (stereo not given in full) has pIC50 at least equal to 8.
Output line: 1

Input line: Threshold query (pIC50 >= 8) on Cc1cccnc1N[C@H]1CC[C@H](Oc2ncccc2C2CCOCC2)CC1
Output line: 0

Input line: Confirm if pIC50 reported for the compound CC(=O)N1CCC(c2nccnc2O[C@H]2C[C@@H](Nc3ccc(C)cn3)C2)CC1 is 8 or above.
Output line: 0

# next compound below
Input line: # bool: pIC50 of OCC1CCCN(c2nccnc2O[C@H]2C[C@@H](Nc3nc4ccccc4s3)C2)C1 (stereo not given in full) >= 8
Output line: 1
